Attribution: paper PMC12224939

Test system: Influenza B/Ned/537/05 (Ned05; B/Yamagata lineage)
EXPERIMENT DESCRIPTION: Influenza virus inhibition assay in Calu-3 cells, IBV
Format: cell-based, influenza B virus
CONDITION SUMMARY: Influenza B virus, Calu-3; Table S1; read-out: anti-viral IC50 (±SEM), IBV
Structures can show the parent of a compound that is named as a salt.
MEASURED ATTRIBUTE: IC50 (nM)
# value in nM; strip the unit string

Query string: Data request, read-out IC50, for CN(C)C(=O)COC(=O)Cc1ccc(OC(=O)c2ccc(NC(=N)N)cc2)cc1 [Camostat mesylate]
Result string: 125

====

EXPERIMENTAL TARGET: TMPRSS14 (Matriptase) (Homo sapiens)
Sequence (Q9Y5Y6 whole entry): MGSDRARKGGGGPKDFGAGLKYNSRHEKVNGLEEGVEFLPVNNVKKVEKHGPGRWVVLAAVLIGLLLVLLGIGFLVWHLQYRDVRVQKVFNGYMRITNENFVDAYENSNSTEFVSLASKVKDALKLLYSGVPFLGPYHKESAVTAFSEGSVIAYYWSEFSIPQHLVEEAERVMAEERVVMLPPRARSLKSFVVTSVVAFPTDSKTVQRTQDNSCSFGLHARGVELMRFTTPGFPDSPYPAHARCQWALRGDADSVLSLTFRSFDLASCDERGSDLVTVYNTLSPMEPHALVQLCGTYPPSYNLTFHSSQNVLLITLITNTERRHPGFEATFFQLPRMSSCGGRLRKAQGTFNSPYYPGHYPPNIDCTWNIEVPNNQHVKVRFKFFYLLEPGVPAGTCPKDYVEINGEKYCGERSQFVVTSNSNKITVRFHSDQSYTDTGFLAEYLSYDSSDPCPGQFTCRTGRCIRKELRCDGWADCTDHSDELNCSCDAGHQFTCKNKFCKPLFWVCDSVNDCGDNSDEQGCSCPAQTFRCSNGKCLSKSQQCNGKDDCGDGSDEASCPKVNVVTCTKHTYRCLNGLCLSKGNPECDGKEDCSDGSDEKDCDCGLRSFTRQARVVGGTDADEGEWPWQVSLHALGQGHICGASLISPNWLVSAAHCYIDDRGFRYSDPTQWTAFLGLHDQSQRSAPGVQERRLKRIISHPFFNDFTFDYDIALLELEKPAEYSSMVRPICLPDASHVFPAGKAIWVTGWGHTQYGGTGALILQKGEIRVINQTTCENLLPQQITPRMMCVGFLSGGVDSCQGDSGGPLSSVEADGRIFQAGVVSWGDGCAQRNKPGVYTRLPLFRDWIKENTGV
EXPERIMENT DESCRIPTION: Recombinant TMPRSS14 activity assay
CONDITION SUMMARY: recombinant enzyme
Counter-ions that a name gives are not always drawn.
MEASURED ATTRIBUTE: IC50 (nM)
# value in nM; strip the unit string

Query string: Data request, read-out IC50, for CN(C)C(=O)COC(=O)Cc1ccc(OC(=O)c2ccc(NC(=N)N)cc2)cc1 [Camostat mesylate]
Result string: 23

====

System: Influenza A/Victoria/361/11 (Vict11; A/H3N2)
EXPERIMENT DESCRIPTION: Influenza virus inhibition assay in Calu-3 cells, IAV H3N2
Format: cell-based, influenza A virus
CONDITION SUMMARY: Influenza A virus, H3N2, Calu-3; Table S1; read-out: anti-viral IC50 (±SEM), IAV H3N2
Structures can show the parent of a compound that is named as a salt.
MEASURED ATTRIBUTE: IC50 (nM)
# value in nM; strip the unit string

Query string: Data request, read-out IC50, for CN(C)C(=O)COC(=O)Cc1ccc(OC(=O)c2ccc(NC(=N)N)cc2)cc1 [Camostat mesylate]
Result string: 50.2

====

EXPERIMENTAL TARGET: Kallikrein 5 (Homo sapiens, UniProt Q9Y337)
Sequence (Q9Y337 23-293): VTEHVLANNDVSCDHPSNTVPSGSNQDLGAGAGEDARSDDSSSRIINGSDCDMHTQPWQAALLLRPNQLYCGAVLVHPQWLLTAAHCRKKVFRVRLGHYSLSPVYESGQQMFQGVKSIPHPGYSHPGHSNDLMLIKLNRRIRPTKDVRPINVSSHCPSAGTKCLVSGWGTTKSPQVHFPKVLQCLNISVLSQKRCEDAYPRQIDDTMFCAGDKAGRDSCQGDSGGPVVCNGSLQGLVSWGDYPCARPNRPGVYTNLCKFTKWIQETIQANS
EXPERIMENT DESCRIPTION: Recombinant kallikrein 5 activity assay
CONDITION SUMMARY: recombinant enzyme
Counter-ions that a name gives are not always drawn.
MEASURED ATTRIBUTE: IC50 (nM)
# value in nM; strip the unit string

Query string: Data request, read-out IC50, for CN(C)C(=O)COC(=O)Cc1ccc(OC(=O)c2ccc(NC(=N)N)cc2)cc1 [Camostat mesylate]
Result string: 536
